Tested on: velvetleaf
testSummary: Test B pre/postemergence velvetleaf
Assay type: in vivo, Abutilon theophrasti
reportedConditions: Rate 250 g/ha; Postemergence
Procedure: […] At the same time, these crop and weed species were also treated with postemergence applications of test chemicals formulated in the same manner. […] Treated plants and controls were maintained in a greenhouse for twelve to sixteen days, after which all species were compared to controls and visually evaluated. […]
propertyName: Plant response rating (0 to 10; 0 is no effect, 10 is complete control), Velvetleaf
Lab note: write the figure by itself, no unit.

Given item CC(C)N(C(=O)n1oc(=O)n(CC=Cc2ccccc2)c1=O)c1ccc(F)cc1 , the value recorded as its Plant response rating (0 to 10; 0 is no effect, 10 is complete control), Velvetleaf is 2

Given item CCc1ccc(N(C(=O)n2oc(=O)n(-c3ccccc3C)c2=O)C(C)C)cc1 , the value recorded as its Plant response rating (0 to 10; 0 is no effect, 10 is complete control), Velvetleaf is 0

Given item CC(C)N(C(=O)n1oc(=O)n(-c2cccnc2)c1=O)c1ccc(F)cc1 , the value recorded as its Plant response rating (0 to 10; 0 is no effect, 10 is complete control), Velvetleaf is 0

Given item CCOC(=O)C=CCn1c(=O)on(C(=O)N(c2ccc(F)cc2)C(C)C)c1=O , the value recorded as its Plant response rating (0 to 10; 0 is no effect, 10 is complete control), Velvetleaf is 0

Where do the numbers come from? From patent US6737383B1.
